Molecular target: truncated human beta-secretase, BACE1 (amino acids 1-454) (Homo sapiens (Human), UniProt P56817)
Sequence (P56817 22-454): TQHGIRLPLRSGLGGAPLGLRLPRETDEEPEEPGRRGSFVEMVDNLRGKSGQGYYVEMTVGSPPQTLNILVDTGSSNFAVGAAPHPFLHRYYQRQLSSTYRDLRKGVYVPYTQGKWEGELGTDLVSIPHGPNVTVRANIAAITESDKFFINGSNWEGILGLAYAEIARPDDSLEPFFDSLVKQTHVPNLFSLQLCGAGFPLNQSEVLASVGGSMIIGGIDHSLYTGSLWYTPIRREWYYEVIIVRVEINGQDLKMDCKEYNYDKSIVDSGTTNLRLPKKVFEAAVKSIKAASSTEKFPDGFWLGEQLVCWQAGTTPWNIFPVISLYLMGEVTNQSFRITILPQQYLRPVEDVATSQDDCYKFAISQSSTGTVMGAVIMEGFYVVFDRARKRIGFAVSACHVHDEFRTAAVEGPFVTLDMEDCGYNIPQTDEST
Assay: BACE1 Assay (Assay 1), fluorescence quench assay
Format: biochemical
Conditions: Table 1; pH 4.4, 1 μM substrate peptide; read-out: BACE 1 IC50 nM (Assay 1)
Method: The substrate was dissolved at 1 mg/ml in DMSO. […] The intensity of fluorescence was regressed against time in order to derive velocities of reaction in all 384 wells. […] IC50 values were calculated by fitting percent control vs. test compound concentration using Assay Explorer®.
1 if IC50 is below 2 nM. 0 if not; exact matches included in 0.

Illustrative cases are given below, each with its answer.
CC#Cc1cncc(-c2ccc3c(c2)[C@@]2(N=C(C)C(N)=N2)[C@@]2(C3)C[C@@H](C)[C@H](OC)[C@@H](C)C2)c1 | 0
CC1=N[C@]2(N=C1N)c1cc(C#N)ccc1C[C@@]21C[C@@H](C)[C@H](O)[C@@H](C)C1 | 0
CO[C@H]1[C@H](C)C[C@@]2(Cc3ccc(Br)cc3[C@@]23N=C(C)C(N)=N3)C[C@@H]1C | 0

[in] Take the compound `CO[C@H]1[C@H](C)C[C@@]2(Cc3ccc(-c4cncc(F)c4)cc3[C@@]23N=C(C)C(N)=N3)C[C@@H]1C` and say whether its IC50 is less than 2 nM.
[out] 1

[in] Take the compound `CO[C@H]1CC[C@@]2(Cc3ccc(C#N)cc3[C@@]23N=C(C)C(N)=N3)C[C@@H]1C` and say whether its IC50 is less than 2 nM.
[out] 1

[in] Take the compound `CO[C@H]1[C@H](C)C[C@@]2(Cc3ccc(C#N)cc3[C@@]23N=C(C)C(N)=N3)C[C@@H]1C` and say whether its IC50 is less than 2 nM.
[out] 0
